Each recorded value in this set is attributed to patent US8952024B2.

Tested on: woolly cupgrass (Eriochloa villosa)
TEST_SUMMARY: Test B pre-/postemergence plant response
Type: in vivo
EXPERIMENTAL_CONDITIONS: Postemergence, 250 g ai/ha; scale 0 to 100 (0 no effect, 100 complete control); 13 to 15 days
Plant response rating, Cupgrass, Woolly listing for selected compounds.
MEASURED_METRIC: Plant response rating, Cupgrass, Woolly

>>> val("O=C(C1=C(O)C2CCC(C2)C1=O)c1cnc(-c2ccsc2)n(CC2CCCO2)c1=O (stereo not shown) [Compound 229]")
90
>>> val("CCCn1c(-c2ccsc2)ncc(C(=O)C2=C(O)C3CCC(C3)C2=O)c1=O (stereo not shown) [Compound 227]")
95
>>> val("COCCCn1c(-c2cccc(F)c2)ncc(C(=O)C2=C(O)C3CCC(C3)C2=O)c1=O (stereo not shown) [Compound 238]")
100
>>> val("COCCn1c(-c2ccsc2)ncc(C(=O)C2=C(O)C3CCC(C3)C2=O)c1=O (stereo not shown) [Compound 228]")
98
>>> val("CCc1ccc(-n2c(-c3ccccc3)ncc(C(=O)C3=C(O)CCCC3=O)c2=O)cc1 [Compound 219]")
98
>>> val("O=C1CCCC(O)=C1C(=O)c1cnc(-c2cccs2)n(C2CCCCC2)c1=O [Compound 189]")
80
>>> val("COCCn1c(-c2cccc(F)c2)ncc(C(=O)C2=C(O)C3CCC(C3)C2=O)c1=O (stereo not shown) [Compound 235]")
100
